Data origin, for the record: patent US10463644B2

system: cancer stem cells; experiment: Survival rate of cancer stem cells after test compound is added (flow cytometry, Annexin V-FITC/PI, clinical specimen); assay type: cell-based, patient; details: Homo sapiens, 18 h, Gastrointestinal tumor; 10.0 μM
Text: […]
value_type: viability at 10 µM (%)

                                   molecule          value_type  result
0  C=C1C(=O)O[C@H]2[C@H]1CC[C@@](C)(OC)C1CC[C@@](C)(O)[C@@H]12 (stereo partly drawn)  viability at 10 µM      78
1  C=C1C(=O)O[C@@H]2[C@@H]3[C@@H](CC[C@@]3(C)O)[C@](C)(O)CC[C@@H]12  viability at 10 µM      85
2  C=C1CC[C@H]2C(=C)CC[C@H]3C(=C)C(=O)O[C@@H]3[C@@H]12  viability at 10 µM      54
3  C=C1C(=O)O[C@H]2[C@H]1CCC(C)=C1CC[C@@](C)(OC(=O)CCCc3cn(CCCCCCO)nn3)[C@@H]12  viability at 10 µM      64

====

Item-by-item account of viability at 10 µM
system: cancer cells; test: Survival rate of cancer cells after test compound is added (flow cytometry, Annexin V-FITC/PI, clinical specimen); format: cell-based, patient; details: Homo sapiens, 18 h, CML; 10.0 μM; read-out: Survival rate (%) All cells (Stem cells and ordinary cells)
Description: […]
value_type: viability at 10 µM (%)

                                   compound          value_type  result
0  C=C1C(=O)O[C@H]2[C@H]1CCC(C)=C1CC[C@@](C)(OC(=O)CCCc3cn(CCCCCCO)nn3)[C@@H]12 [Compound 21]  viability at 10 µM      82
1  C=C1C(=O)O[C@H]2[C@H]1CC[C@]1(C)O[C@@]13CC[C@@](C)(O)[C@H]23 [Compound 24]  viability at 10 µM      69
2  C=C1C(=O)O[C@@H]2[C@@H]3[C@@H](CC[C@@]3(C)O)[C@](C)(O)CC[C@@H]12 [Compound 49]  viability at 10 µM      90
3  C=C1C(=O)O[C@H]2[C@H]1CC[C@@](C)(OC)C1CC[C@@](C)(O)[C@@H]12 (stereo partly drawn) [Compound 47]  viability at 10 µM      92
4  CN(C)C[C@@H]1C(=O)O[C@H]2[C@H]1CCC1(CC1)[C@@H]1CCC3(CC3)[C@H]21 [Compound 27]  viability at 10 µM      94
5  C=C1C(=O)O[C@@H]2[C@@H]3[C@@H](CCC34CC4)C3(CC[C@@H]12)CC3 [Compound 26]  viability at 10 µM      92

====

test system: normal cells; test: Survival rate of normal cells after test compound is added (flow cytometry, Annexin V-FITC/PI); assay type: cell-based; conditions: 18 h, 10.0 μM, read-out: Survival rate (%) All cells (Stem cells and ordinary cells)
value_type: viability at 10 µM (%)

>>> print(df.to_string())
                                   compound  result
0  CN(C)C[C@@H]1C(=O)O[C@H]2[C@H]1CCC1(CC1)[C@@H]1CCC3(CC3)[C@H]21 [Compound 35]      95
1  C=C1C(=O)O[C@H]2[C@H]1CC[C@]1(C)O[C@@]13CC[C@@](C)(O)[C@H]23 [Compound 24]      93
2  CN(C)C[C@@H]1C(=O)O[C@H]2[C@H]1CCC1(CC1)[C@@H]1CCC3(CC3)[C@H]21 [Compound 27]      91
3  CCOC(=O)[C@@H]1CCCN1C[C@@H]1C(=O)O[C@H]2[C@H]1CCC1(CC1)[C@@H]1CCC3(CC3)[C@H]21 [Compound 29]      96
4  CC1=C2CC[C@@](C)(O)[C@@H]2[C@H]2OC(=O)[C@@H](CN(C)C)[C@@H]2CC1 [Compound 23]      96
5  C=C1C(=O)O[C@H]2[C@H]1CCC(C)=C1CC[C@@](C)(OC(=O)CCCc3cn(CCCCCCO)nn3)[C@@H]12 [Compound 21]      95

====

As shown below, each of these compounds has a reported viability at 10 µM value.
tested on: cancer stem cells; assay: Survival rate of cancer stem cells after test compound is added (flow cytometry, Annexin V-FITC/PI, clinical specimen); assay type: cell-based, patient; conditions: Homo sapiens, 18 h, Gastric cancer; 10.0 μM
value_type: viability at 10 µM

>>> print(df.to_string())
                         compound_structure  result
0  C=C1C(=O)O[C@@H]2[C@H]3C(C)=CC[C@@]34O[C@@]4(C)CC[C@@H]12     45%
1  [2H][C@@]1(CN(C)C)C(=O)O[C@@H]2[C@@H]3[C@@H](CCC34CC4)C3(CC[C@H]21)CC3     87%
2  C=C1C(=O)O[C@H]2[C@H]1CCC(C)=C1CC[C@@](C)(OC(=O)CCCc3cn(CCCCCCO)nn3)[C@@H]12     56%

====

Measured viability at 10 µM accompanies every entry in the list below.
tested on: cancer stem cells; experiment: Survival rate of cancer stem cells after test compound is added (flow cytometry, Annexin V-FITC/PI, clinical specimen); assay type: cell-based, patient; details: Homo sapiens, 18 h, Laryngeal cancer; 10.0 μM
value_type: viability at 10 µM

>>> print(df.to_string())
                         compound_structure  result
0  C=C1C(=O)O[C@@H]2[C@@H]3[C@@H](CC[C@@]3(C)O)C(=C)CC[C@@H]12     63%
1  C=C1C(=O)O[C@H]2[C@H]1CC[C@]1(C)O[C@@]13CC[C@@](C)(O)[C@H]23     65%
2  C=C1C(=O)O[C@H]2[C@H]1CCC(C)=C1CC[C@@](C)(OC(=O)CCCc3cn(CCCCCCO)nn3)[C@@H]12     66%
